target: BSA (UniProt P02769); experiment: scFv ELISA
Sequence (P02769 25-607 limits assumed): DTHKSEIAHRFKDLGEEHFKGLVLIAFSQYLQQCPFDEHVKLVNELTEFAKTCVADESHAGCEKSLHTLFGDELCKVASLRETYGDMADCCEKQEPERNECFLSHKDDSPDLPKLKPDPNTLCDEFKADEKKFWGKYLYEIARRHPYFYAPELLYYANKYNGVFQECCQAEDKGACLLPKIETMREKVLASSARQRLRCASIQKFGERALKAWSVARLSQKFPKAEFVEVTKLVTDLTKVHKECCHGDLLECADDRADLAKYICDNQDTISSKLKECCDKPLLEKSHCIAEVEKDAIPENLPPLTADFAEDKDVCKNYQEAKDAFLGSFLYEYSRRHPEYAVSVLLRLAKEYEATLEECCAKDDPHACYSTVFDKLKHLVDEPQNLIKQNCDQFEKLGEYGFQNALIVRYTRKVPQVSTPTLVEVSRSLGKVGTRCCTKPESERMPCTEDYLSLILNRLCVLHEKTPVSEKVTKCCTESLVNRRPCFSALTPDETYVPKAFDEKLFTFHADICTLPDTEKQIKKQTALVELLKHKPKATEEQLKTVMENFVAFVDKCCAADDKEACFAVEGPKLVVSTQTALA
OD450 values for the binders below.
Answer with a number only, understood to be in OD450.

Request: Bench note: what OD450 did PcOxP_DB01_E05 (scFv, V domains shown, scFv in periplasmic extract) VH: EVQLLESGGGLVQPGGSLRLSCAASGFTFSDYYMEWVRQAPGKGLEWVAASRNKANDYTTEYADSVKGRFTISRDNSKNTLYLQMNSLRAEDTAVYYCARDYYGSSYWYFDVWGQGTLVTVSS VL: DIQMTQSPSSLSASVGDRVTITCTASESLYSSKHKVNYLAWYQQKPGKAPKLLIYGASNRYIGVPSRFSGSGSGTDFTLTISSLQPEDFATYYCAQFYQYPLTFGGGTKVEIK show?
Result: 0.11

Request: Bench note: what OD450 did PcOxP_DB01_F04 (scFv, V domains shown, scFv in periplasmic extract) VH: EVQLLESGGGLVQPGGSLRLSCAASGFTFSSYYMEWVRQAPGKGLEWVAASRNKYNDYTTEYADSVKGRFTISRDNSKNTLYLQMNSLRAEDTAVYYCARDYYGSSYWYFDVWGQGTLVTVSS VL: DIQMTQSPSSLSASVGDRVTITCTASESLYSSKHKVHYLAWYQQKPGKAPKLLIYGAVNRYIGVPSRFSGSGSGTDFTLTISSLQPEDFATYYCAQFYRYPLTFGGGTKVEIK show?
Result: 0.09

For the next question, use this binder.
Request: Bench note: what OD450 did PcOxP_DB04_B01 (scFv, V domains shown, scFv in periplasmic extract) VH: EVQLLESGGGLVQPGGSLRLSCAASGFTQSDFYMEWVRQAPGKGLEWVAASRNKANDYTTEYADSVKGRFTISRDNSKNTLYLQMNSLRAEDTAVYYCARDYYGESYWYFDVWGQGTLVTVSS VL: DIVMTQSPDSLAVSLGERATINCTASVSLYSSKHKVHYLAWYQQKPGQPPKLLIYGPSNRYIGVPDRFSGSGSGTDFTLTISSLQAEDVAVYYCAQFYSYPLTFGGGTKVEIK show?
Result: 0.06
